Give measured kobs for each item. Keep answers brief.
system.tested: SARS-CoV-2 Spike protein receptor-binding domain (RBD) (SARS-CoV-2, UniProt P0DTC2 319-527)
method.description: BLI (Octet), IgG1 captured on anti-human Fc sensors, RBD in solution; also: test concentration or dose not given here
Numbers only; they are read as s⁻¹.

Record summary for AB-10 full-length IgG1 (humanized) (antibody, V domains shown) VH: QVQLVQSGAEVKKPGASVKVSCKASGYTFTSYWMHWVRQAPGQGLEWMGAIYPGNGDTNYAQKFQGRVTMTADTSISTAYMELSRLRSDDTAVYYCTREGIPQLLNTLDVWGQGTLVTVSS VL: DIQMTQSPSSLSASVGDRVTITCRASQEISGYLNWYQQKPGKAPKRLIYAASSLQSGVPSRFSGSGSGTDFTLTISSLQPEDFATYYCQQYLSYPWTFGQGTKVEIK : reported kobs = 0.0151

Record summary for AB-1 full-length IgG1 (antibody, V domains shown) VH: EVQLEESGTVLARPGASVKMSCKASGYTFTTYWMHWIKQRPGQGLEWIGAIYPGNSDTQYNQKFKDKAKLTAVKSTSSAYMELSSLTNEDSAVYFCTREGIPQLLRTLDYWGQGTSVTVSS VL: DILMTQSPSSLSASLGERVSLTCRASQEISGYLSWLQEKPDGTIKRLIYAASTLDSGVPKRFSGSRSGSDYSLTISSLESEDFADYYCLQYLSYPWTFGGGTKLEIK : reported kobs = 0.00924

Record summary for AB-12 full-length IgG1 (humanized) (antibody, V domains shown) VH: EVQLVQSGAEVKKPGESLKISCKASGYTFTTYWMHWVRQMPGKGLEWMGAIYPGNSDTRYSPSFQGQVTLSVDKSITTAYLQWNSLKASDTAMYFCTREGIPQLLRTLDYWGQGTLVTVSS VL: DIQMTQSPSSLSASVGDRVTITCRASQGISGYLSWLQQKPEKAPKRLIYAASTLQSGVPSRFSGSGSGTDFTLTISSLQPEDFATYYCQQYLSYPWTFGQGTKLEIK : reported kobs = 0.0149

Record summary for AB-11 full-length IgG1 (humanized) (antibody, V domains shown) VH: EVQLVQSGAEVKKSGESLKISCKASGYTFTTYWMHWVRQMPGKGLEWMGAIYPGNSDTQYSPSFQGQVTLSADKSISTAYLQWSSLKASDTAMYFCTREGIPQLLRTLDYWGQGTLVTVSS VL: EIVLTQSPGTLSLSPGERATLSCRASQEISGYLAWLQQKPGQAPRRLIYAASSLATGIPDRFSGSGSGTDFTLTISRLEPEDFAVYYCLQYLSYPWTFGQGTKVEIK : reported kobs = 0.0104
